Consider the following molecules and their measured Ki readings.
System under test: Mitogen-activated protein kinase 1 (Homo sapiens)
Sequence (P28482 whole entry): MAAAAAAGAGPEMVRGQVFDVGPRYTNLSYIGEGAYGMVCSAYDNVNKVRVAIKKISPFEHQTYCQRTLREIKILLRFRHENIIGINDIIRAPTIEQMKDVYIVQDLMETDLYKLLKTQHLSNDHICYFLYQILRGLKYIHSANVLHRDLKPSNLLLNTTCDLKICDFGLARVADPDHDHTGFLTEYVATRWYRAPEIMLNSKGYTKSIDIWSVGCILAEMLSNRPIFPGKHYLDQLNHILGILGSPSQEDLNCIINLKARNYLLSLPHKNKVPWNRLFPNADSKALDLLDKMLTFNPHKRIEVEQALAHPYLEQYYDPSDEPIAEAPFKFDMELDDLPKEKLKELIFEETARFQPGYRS
Test details: Inhibition of ERK2 by spectrophotometric coupled-enzyme assay
Numeric answer only, unit nM assumed.

Documented Ki of O=C(NC(CO)c1ccc(Cl)cc1)c1cc(-c2n[nH]cc2-c2cccc(Cl)c2)c[nH]1 (configuration not stated) : 14

Documented Ki of O=C(NC(CO)c1ccc(F)c(F)c1)c1cc(-c2n[nH]cc2-c2cccc(Cl)c2)c[nH]1 (configuration not stated) : 22

Documented Ki of O=C(NCc1ccc(F)c(F)c1)c1cc(-c2n[nH]cc2-c2cccc(Cl)c2)c[nH]1 : 40

* * *

Tested on: COLO 205
Test details: Antiproliferative activity against Colo205 cells measured by [3H]thymidine incorporation after 48 hrs
Format: functional, cell-based
Stated conditions: Homo sapiens
Observed property: IC50 (nM)
Numeric answer only, unit nM assumed.

Documented IC50 of O=C(N[C@H](CO)c1ccc(F)c(Cl)c1)c1cc(-c2n[nH]cc2-c2cccc(Cl)c2)c[nH]1 : 540

Attribution: ChEMBL document CHEMBL1142871
